# maps each entry to its Ki
# experimental target: Sigma non-opioid intracellular receptor 1 (Cavia porcellus, UniProt Q60492)
# Sequence (Q60492 whole entry): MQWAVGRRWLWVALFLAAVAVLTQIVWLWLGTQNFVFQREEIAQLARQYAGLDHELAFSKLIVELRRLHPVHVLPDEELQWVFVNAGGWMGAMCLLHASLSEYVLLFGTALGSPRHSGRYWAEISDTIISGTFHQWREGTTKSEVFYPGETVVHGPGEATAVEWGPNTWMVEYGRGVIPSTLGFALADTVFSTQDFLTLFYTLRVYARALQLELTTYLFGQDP
# test protocol: Displacement of (+)- [3H]pentazocine from sigma 1 receptor expressed in guinea pig brain membrane homogenates by scintillation counting analysis
Your answer is read as µM, so omit the unit and give the number.

// below: answered compounds
O=C(c1ccc(F)nc1)C1CCN([C@@H]2Cc3ccccc3C[C@H]2O)CC1 (racemic)
0.682
CN(C)c1ccc(C(=O)C2CCN([C@@H]3Cc4ccccc4C[C@H]3O)CC2)cc1 (racemic)
0.0409

Moving on to the next compound.
Give me measured Ki, please, for this compound: `[11CH3]Nc1ccc(C(=O)C2CCN([C@H]3Cc4ccccc4C[C@@H]3O)CC2)cc1`
0.992
